target: T1, chemokine receptor 5 (CCR5) (human, UniProt P51681 1-352); assay: competition radioligand binding, membranes of CHO-K1 cells expressing CCR5, tracer [125I]-MIP-1 beta; mean ± SEM
T1 construct: whole, on cells
T1 sequence (P51681 whole entry): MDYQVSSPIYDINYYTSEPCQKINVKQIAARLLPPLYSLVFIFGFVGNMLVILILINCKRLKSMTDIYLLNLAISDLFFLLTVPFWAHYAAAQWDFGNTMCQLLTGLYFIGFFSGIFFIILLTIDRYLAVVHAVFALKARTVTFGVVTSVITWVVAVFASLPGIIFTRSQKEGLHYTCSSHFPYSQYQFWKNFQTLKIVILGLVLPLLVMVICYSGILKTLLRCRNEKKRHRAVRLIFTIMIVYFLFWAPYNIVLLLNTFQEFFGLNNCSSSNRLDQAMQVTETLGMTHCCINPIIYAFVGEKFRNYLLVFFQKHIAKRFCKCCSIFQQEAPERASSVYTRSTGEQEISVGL
*: point of attachment. Nonanoyl = CCCCCCCCC(=O)*
Response field label takes Satisfied when IC50 is strictly below 1 nM and Not satisfied in all other cases.

Reference set (7 entries):
HCC-1[8-74] (ligand, Synthetic, oxidatively folded) RGPYHPSECCFTYTTYKIPRQRIMDYYETNSQCSKPGIVFITKRGHSVCTNPSDKWVQDYIKDMKEN    Not satisfied
NNY-HCC-1[10-74] (nonanoyl-HCC-1[10-74]) (ligand, ends and bridges not checked, Chemokine compound analog, synthetic) Nonanoyl-PYHPSECCFTYTTYKIPRQRIMDYYETNSQCSKPGIVFITKRGHSVCTNPSDKWVQDYIKDMKEN    Satisfied
HCC-1, residues 6-74 (ligand, also called HCC-1[6-74]) SSRGPYHPSECCFTYTTYKIPRQRIMDYYETNSQCSKPGIVFITKRGHSVCTNPSDKWVQDYIKDMKEN    Not satisfied
HCC-1[7-74] (ligand, Synthetic, oxidatively folded) SRGPYHPSECCFTYTTYKIPRQRIMDYYETNSQCSKPGIVFITKRGHSVCTNPSDKWVQDYIKDMKEN    Not satisfied
HCC-1[10-74] (ligand, Synthetic, oxidatively folded) PYHPSECCFTYTTYKIPRQRIMDYYETNSQCSKPGIVFITKRGHSVCTNPSDKWVQDYIKDMKEN    Satisfied
HCC-1[12-74] (ligand, Not in the list MOLECULES; also called PHC-2) chemokine chain: HPSECCFTYTTYKIPRQRIMDYYETNSQCSKPGIVFITKRGHSVCTNPSDKWVQDYIKDMKEN    Not satisfied
processed human chemokine PHC-1 (HCC-1[9-74]) (ligand, Purified from human hemofiltrate or made by tryptic digestion of HCC-1 (1-74)) GPYHPSECCFTYTTYKIPRQRIMDYYETNSQCSKPGIVFITKRGHSVCTNPSDKWVQDYIKDMKEN    Satisfied

From here, focus on the item given below.
is_below(IC50, 1 nM) for HCC-1[11-74] (ligand, Synthetic, oxidatively folded) YHPSECCFTYTTYKIPRQRIMDYYETNSQCSKPGIVFITKRGHSVCTNPSDKWVQDYIKDMKEN ? Not satisfied
